- TARGET: T1, His9-hMSR1 (human MSR1 extracellular domain) (Homo sapiens, UniProt P21757)
- T1 construct: human MSR1 extracellular domain expressed with a N-terminal nonahistidine tag; His9 (nonahistidine) (N); purchased R&D Systems 2708-MS
- T1 sequence (P21757 77-451 limits assumed): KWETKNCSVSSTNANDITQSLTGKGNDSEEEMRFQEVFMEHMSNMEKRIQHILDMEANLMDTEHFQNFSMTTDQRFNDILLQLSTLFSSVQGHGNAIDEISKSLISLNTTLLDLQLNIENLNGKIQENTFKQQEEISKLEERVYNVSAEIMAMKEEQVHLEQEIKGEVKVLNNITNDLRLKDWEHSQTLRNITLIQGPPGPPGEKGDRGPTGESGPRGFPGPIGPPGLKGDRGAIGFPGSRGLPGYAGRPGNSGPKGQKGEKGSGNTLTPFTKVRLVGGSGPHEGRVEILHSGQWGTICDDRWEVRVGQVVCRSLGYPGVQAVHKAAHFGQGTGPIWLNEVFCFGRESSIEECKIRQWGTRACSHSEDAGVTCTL
- ASSAY: Biacore T200 surface plasmon resonance binding kinetics of anti-MSR1 antibody-drug conjugates and parental antibodies
- TEST CONDITIONS: 25° C.; Table 19; * = no dissociation observed, kd manually fixed at 1.00E−05
METRIC: kd

MOLECULE	kd
H1H27734P-N297Q: one of "Twelve anti-MSR1 antibodies"; "made with an N297Q single point mutation in human Fcγ portion" (antibody, V domains shown) VH: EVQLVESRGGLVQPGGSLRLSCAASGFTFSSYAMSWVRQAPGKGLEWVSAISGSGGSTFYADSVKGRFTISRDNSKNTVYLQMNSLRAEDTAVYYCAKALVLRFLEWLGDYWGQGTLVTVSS VL: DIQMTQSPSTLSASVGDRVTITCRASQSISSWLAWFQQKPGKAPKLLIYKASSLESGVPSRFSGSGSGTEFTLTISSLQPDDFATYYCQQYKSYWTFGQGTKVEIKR	0.000596 s⁻¹

Switching to the query record.
Req: Suppose we examine the molecule H1H27729P-N297Q: anti-MSR1 antibody "made with an N297Q single point mutation in human Fcγ portion" (antibody, V domains shown) VH: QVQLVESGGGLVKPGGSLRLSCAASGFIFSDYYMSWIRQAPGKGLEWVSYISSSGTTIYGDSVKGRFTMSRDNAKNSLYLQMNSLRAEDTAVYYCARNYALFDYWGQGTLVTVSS VL: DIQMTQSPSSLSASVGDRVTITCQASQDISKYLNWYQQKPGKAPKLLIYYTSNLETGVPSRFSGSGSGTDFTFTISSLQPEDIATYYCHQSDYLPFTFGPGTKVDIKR ; what kd value has been reported?
Resp: 0.000906 s⁻¹

Cited source: patent US12497460B2
